assay: log P (pH 2.3); type: physicochemical
ENDPOINT: logP
Answers are plain numbers.

For every item in the list below, what is its measured logP?
1. Cc1cc(N)c(Cl)cc1Oc1nc(C2(Cl)CC2)ns1
2. Cc1ccc(S(=O)(=O)c2nc(C3(Cl)CC3)ns2)cc1
3. Cc1cc(N)c(Cl)cc1Oc1nc(CCc2ccc(Cl)cc2)ns1
4. Cc1ccc(S(=O)(=O)c2nc(CCc3ccc(Cl)cc3)ns2)cc1

1: 3.5; 2: 3.67; 3: 4.5; 4: 4.62

Parameters: items (list). Returns: logP for each item.
1. O=c1oc(CCc2ccc(Cl)cc2)ns1
2. CCN(C)C=Nc1cc(C)c(Oc2nc(C3(Cl)CC3)ns2)cc1Cl
3. Cc1cc(/N=C\N2CCCCC2)c(Cl)cc1Oc1nc(CCc2ccc(Cl)cc2)ns1

3.36
1.62
2.64
